Target desc: ATM kinase (Homo sapiens, UniProt Q13315)
Construct: The full-length cDNA encoding NH2-terminal, FLAG-tagged wild-type ATM; made in house; host or cells: 293T cells, transient transfection with pcDNA-FLAG-ATMwt, anti-FLAG M2 immunoprecipitate on beads
Sequence (Q13315 whole entry): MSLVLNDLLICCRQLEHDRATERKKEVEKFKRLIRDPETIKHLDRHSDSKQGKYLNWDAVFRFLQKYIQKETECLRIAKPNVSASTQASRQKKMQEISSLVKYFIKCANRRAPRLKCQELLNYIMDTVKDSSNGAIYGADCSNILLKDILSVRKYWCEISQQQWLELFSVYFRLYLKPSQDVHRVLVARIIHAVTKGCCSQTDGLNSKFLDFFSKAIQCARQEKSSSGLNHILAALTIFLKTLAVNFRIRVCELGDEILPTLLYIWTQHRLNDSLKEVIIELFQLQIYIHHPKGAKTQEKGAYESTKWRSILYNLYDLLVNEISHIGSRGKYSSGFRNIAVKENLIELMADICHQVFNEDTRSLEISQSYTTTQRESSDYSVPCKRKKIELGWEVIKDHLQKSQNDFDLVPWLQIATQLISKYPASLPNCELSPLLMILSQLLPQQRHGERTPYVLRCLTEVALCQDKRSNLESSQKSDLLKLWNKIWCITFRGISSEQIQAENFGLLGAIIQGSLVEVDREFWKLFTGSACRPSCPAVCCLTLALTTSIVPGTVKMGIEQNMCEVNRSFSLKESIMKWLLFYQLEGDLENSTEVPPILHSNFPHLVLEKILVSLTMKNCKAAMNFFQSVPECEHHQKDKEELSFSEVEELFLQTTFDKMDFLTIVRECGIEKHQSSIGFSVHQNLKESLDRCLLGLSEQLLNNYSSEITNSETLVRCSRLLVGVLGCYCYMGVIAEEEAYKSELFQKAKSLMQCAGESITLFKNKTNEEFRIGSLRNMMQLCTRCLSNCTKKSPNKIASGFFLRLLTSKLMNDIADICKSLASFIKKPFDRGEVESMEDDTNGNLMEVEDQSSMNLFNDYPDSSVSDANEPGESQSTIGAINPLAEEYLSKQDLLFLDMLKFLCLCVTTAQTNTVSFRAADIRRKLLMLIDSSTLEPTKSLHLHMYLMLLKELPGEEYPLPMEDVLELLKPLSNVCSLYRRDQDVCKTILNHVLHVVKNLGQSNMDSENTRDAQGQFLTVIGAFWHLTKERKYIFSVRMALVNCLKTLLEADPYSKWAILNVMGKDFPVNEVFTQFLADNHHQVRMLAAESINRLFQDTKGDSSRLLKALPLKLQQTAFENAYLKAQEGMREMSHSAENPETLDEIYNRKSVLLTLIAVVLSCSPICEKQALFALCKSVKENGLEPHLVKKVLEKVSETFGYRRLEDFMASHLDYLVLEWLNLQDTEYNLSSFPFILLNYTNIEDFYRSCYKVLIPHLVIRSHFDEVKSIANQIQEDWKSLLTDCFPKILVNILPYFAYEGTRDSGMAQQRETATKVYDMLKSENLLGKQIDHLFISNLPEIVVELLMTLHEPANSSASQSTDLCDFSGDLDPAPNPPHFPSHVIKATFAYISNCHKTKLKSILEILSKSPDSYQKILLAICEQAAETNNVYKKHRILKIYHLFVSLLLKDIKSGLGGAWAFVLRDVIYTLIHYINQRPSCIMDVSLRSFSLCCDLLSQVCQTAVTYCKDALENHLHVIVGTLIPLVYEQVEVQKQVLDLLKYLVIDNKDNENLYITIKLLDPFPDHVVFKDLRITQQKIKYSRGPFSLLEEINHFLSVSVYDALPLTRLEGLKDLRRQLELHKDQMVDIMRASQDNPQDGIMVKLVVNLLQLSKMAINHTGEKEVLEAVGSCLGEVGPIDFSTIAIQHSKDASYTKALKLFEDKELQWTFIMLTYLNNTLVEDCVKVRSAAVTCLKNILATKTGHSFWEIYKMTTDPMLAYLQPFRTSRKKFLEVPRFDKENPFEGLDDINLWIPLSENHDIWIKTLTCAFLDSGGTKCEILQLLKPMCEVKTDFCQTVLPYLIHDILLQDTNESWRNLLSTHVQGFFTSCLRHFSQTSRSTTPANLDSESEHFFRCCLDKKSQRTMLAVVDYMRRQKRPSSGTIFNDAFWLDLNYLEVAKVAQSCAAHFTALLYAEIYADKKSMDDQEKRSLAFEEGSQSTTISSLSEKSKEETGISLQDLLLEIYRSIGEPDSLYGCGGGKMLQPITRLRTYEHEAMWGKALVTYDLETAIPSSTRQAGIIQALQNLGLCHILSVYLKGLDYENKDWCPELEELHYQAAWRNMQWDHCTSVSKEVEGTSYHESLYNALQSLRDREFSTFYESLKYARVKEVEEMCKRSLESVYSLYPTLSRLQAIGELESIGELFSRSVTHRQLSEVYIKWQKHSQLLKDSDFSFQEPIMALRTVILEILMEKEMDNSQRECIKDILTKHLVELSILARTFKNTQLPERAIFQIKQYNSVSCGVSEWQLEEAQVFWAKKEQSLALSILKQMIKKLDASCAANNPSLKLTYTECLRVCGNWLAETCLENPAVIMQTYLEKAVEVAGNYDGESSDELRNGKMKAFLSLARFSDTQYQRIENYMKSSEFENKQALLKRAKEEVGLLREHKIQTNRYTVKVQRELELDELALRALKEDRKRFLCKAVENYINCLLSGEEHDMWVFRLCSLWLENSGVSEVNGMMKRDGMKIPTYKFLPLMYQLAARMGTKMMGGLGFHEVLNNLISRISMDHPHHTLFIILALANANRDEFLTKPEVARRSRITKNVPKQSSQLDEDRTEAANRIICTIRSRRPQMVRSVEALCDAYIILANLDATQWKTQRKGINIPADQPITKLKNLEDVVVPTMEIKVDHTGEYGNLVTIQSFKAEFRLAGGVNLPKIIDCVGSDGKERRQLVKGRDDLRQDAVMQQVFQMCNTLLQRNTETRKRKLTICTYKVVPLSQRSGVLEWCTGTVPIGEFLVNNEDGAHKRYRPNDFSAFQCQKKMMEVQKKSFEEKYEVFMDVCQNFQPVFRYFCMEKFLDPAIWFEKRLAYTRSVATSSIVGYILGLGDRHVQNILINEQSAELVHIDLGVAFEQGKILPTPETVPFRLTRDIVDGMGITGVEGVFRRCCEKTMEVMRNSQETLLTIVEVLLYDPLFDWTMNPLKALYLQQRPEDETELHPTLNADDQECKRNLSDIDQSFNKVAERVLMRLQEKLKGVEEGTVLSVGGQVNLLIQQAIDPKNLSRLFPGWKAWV
Assay text: In vitro kinase assay, ATM with GST-peptide / GST-fusion substrates;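 also: immunoprecipitated ATM incubated with [γ-32P]ATP at 30 °C for 20 min, substrates resolved by SDS-PAGE and radiolabel incorporation quantified by PhosphorImager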
Format: biochemical
Condition: GST-peptide substrate; relative to the p53ser15 site
Where no end group is shown, it is not given here.
Measurement kind: Relative Phosphorylation (%) ATM

Value of measured Relative Phosphorylation (%) ATM for the entry MRE11 (SQ2): GST-peptide FSVLRFSQKFVDRV (SEQ ID NO:12), S386 (also: GST fusion) : <1%

Value of measured Relative Phosphorylation (%) ATM for the entry MRE11 (SQ5): GST-peptide SSSKIMSQSQVSKG (SEQ ID NO:15), S648 (also: GST fusion) : <1%

Value of measured Relative Phosphorylation (%) ATM for the entry RPA34kD (SQ2): GST-peptide IVPCTISQLLSATL (SEQ ID NO:41), S52 (not fully specified (N-terminus); also: GST fusion; listed as Homo sapiens) : <1%

---

Target desc: DNA-PK (Homo sapiens, UniProt P78527)
Assay text: In vitro kinase assay, purified DNA-PK with GST-peptide / GST-fusion substrates
Format: biochemical
Condition: GST-peptide substrate; relative to the p53ser15 site
Where no end group is shown, it is not given here.
Measurement kind: Relative Phosphorylation (%) DNA-PK

Observed Relative Phosphorylation (%) DNA-PK on DNA-PK (Homo sapiens, UniProt P78527), entry ATM S2761: GST-peptide YKVVPLSQRSGVLE (SEQ ID NO:25), S2761 of ATM (also: GST fusion) , equals <1%

Observed Relative Phosphorylation (%) DNA-PK on DNA-PK (Homo sapiens, UniProt P78527), entry MRE11 (SQ2): GST-peptide FSVLRFSQKFVDRV (SEQ ID NO:12), S386 (also: GST fusion) , equals <1%

Observed Relative Phosphorylation (%) DNA-PK on DNA-PK (Homo sapiens, UniProt P78527), entry RPA34kD (SQ2): GST-peptide IVPCTISQLLSATL (SEQ ID NO:41), S52 (not fully specified (N-terminus); also: GST fusion; listed as Homo sapiens) , equals <1%

Observed Relative Phosphorylation (%) DNA-PK on DNA-PK (Homo sapiens, UniProt P78527), entry p115-RhoGEF: GST-peptide RLRPLLSQLGGNSV (SEQ ID NO:27), S899 (not fully specified (N-terminus); also: GST fusion; listed as Homo sapiens) , equals <1%

Observed Relative Phosphorylation (%) DNA-PK on DNA-PK (Homo sapiens, UniProt P78527), entry c-ABL: GST-peptide YPGIDLSQVYELLE (SEQ ID NO:23), S446 (not fully specified (N-terminus); also: GST fusion; listed as Homo sapiens) , equals <1%

Observed Relative Phosphorylation (%) DNA-PK on DNA-PK (Homo sapiens, UniProt P78527), entry MRE11 (SQ3): GST-peptide RARALRSQSEESAS (SEQ ID NO:13), S531 (also: GST fusion) , equals <1%

Observed Relative Phosphorylation (%) DNA-PK on DNA-PK (Homo sapiens, UniProt P78527), entry PI-3K: GST-peptide DLLMYLSQLVQALK (SEQ ID NO:26), S397 (also: GST fusion) , equals <1%
